Provenance of the data: the supplement of paper PMC10567573

B1: SMOC2 (parent)
chain: PALETQPQGDEEDIASRYPTLWTE

Variants of: B1
ASSAY TEXT: protein stability index of a GFP-peptide fusion (GPS, HEK-293T) (PSI 1-6); higher = more stable;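 further: lentivirally expressed fusions sorted by FACS into six bins by GFP to DsRed ratio, PSI derived from sequencing read proportions per bin multiplied by bin number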
RUN PARAMETERS: c terminus: a fixed tail appended
Each record here notes measured protein stability index.
ASSAY READOUT: protein stability index

{"MUTATION KEY": "Y18N", "QUANTITATIVE RESULT": 4.24}
{"MUTATION KEY": "S16N", "QUANTITATIVE RESULT": 4.56}
{"MUTATION KEY": "R17T", "QUANTITATIVE RESULT": 4.29}
{"MUTATION KEY": "Y18D", "QUANTITATIVE RESULT": 5.89}
{"MUTATION KEY": "E12N", "QUANTITATIVE RESULT": 4.11}
{"MUTATION KEY": "A15S", "QUANTITATIVE RESULT": 3.88}
{"MUTATION KEY": "G9H", "QUANTITATIVE RESULT": 4.71}
{"MUTATION KEY": "T20F", "QUANTITATIVE RESULT": 4.6}
{"MUTATION KEY": "E4Q", "QUANTITATIVE RESULT": 4.9}
{"MUTATION KEY": "P7L", "QUANTITATIVE RESULT": 4.6}
{"MUTATION KEY": "Q6A", "QUANTITATIVE RESULT": 4.44}
{"MUTATION KEY": "D13H", "QUANTITATIVE RESULT": 3.71}
{"MUTATION KEY": "E24S", "QUANTITATIVE RESULT": 4.78}
{"MUTATION KEY": "Q8Y", "QUANTITATIVE RESULT": 3.89}
{"MUTATION KEY": "T23E", "QUANTITATIVE RESULT": 5.39}
{"MUTATION KEY": "L21Q", "QUANTITATIVE RESULT": 5.66}
{"MUTATION KEY": "D13S", "QUANTITATIVE RESULT": 3.97}
{"MUTATION KEY": "T23C", "QUANTITATIVE RESULT": 5.02}
{"MUTATION KEY": "D10I", "QUANTITATIVE RESULT": 3.68}
{"MUTATION KEY": "P19H", "QUANTITATIVE RESULT": 4.18}
{"MUTATION KEY": "L21R", "QUANTITATIVE RESULT": 4.91}
{"MUTATION KEY": "D13V", "QUANTITATIVE RESULT": 3.93}
{"MUTATION KEY": "T5P", "QUANTITATIVE RESULT": 4.58}
{"MUTATION KEY": "P1F", "QUANTITATIVE RESULT": 3.44}
{"MUTATION KEY": "T5R", "QUANTITATIVE RESULT": 4.93}
{"MUTATION KEY": "T23V", "QUANTITATIVE RESULT": 2.74}
{"MUTATION KEY": "Y18Q", "QUANTITATIVE RESULT": 4.39}
{"MUTATION KEY": "E11L", "QUANTITATIVE RESULT": 3.84}
{"MUTATION KEY": "P19D", "QUANTITATIVE RESULT": 4.97}
{"MUTATION KEY": "G9C", "QUANTITATIVE RESULT": 5.16}
{"MUTATION KEY": "R17H", "QUANTITATIVE RESULT": 4.38}
{"MUTATION KEY": "P1V", "QUANTITATIVE RESULT": 4.24}
{"MUTATION KEY": "G9F", "QUANTITATIVE RESULT": 4.89}
{"MUTATION KEY": "L21F", "QUANTITATIVE RESULT": 4.27}
{"MUTATION KEY": "L21N", "QUANTITATIVE RESULT": 5.73}
{"MUTATION KEY": "S16F", "QUANTITATIVE RESULT": 4.61}
{"MUTATION KEY": "Y18V", "QUANTITATIVE RESULT": 4.07}
{"MUTATION KEY": "R17L", "QUANTITATIVE RESULT": 4.72}
{"MUTATION KEY": "L3S", "QUANTITATIVE RESULT": 5.03}
{"MUTATION KEY": "I14A", "QUANTITATIVE RESULT": 4.79}
{"MUTATION KEY": "E11N", "QUANTITATIVE RESULT": 4.26}
{"MUTATION KEY": "E11R", "QUANTITATIVE RESULT": 3.98}
